target: T1, CD137-hisFc fusion protein (Sino Biological Cat 10041-H03H) (human, UniProt Q07011 24-186); experiment: BLI Octet, Fab
T1 construct: Bought; also called recombinant human CD137 (fused with human Fc and His tag); not shown: His tag and human Fc
Recorded pKd by entry
// pKd is dimensionless: -log10 of concentration (M)

binder	endpoint.value
Fab 5365 (Fab, V domains shown, Fab from E. coli; also called VH30/VL30) VH: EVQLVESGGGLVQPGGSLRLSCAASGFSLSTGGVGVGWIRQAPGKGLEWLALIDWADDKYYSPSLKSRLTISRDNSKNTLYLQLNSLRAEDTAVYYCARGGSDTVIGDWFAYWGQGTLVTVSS VL: DIQLTQSPSSLSASVGDRVTITCRASQSIGSYLAWYQQKPGKAPKLLIYDASNLETGVPSRFSGSGSGTDFTLTISSLQPEDFATYYCQQGYYLWTFGQGTKVEIKR	8.59

Consider the binder shown here: Fab 5341 (Fab, V domains shown, Fab from E. coli; also called VH20/VL20) VH: EVQLVESGGGLVQPGGSLRLSCAASGYSITSGHHWAWIRQAPGKGLEWVSAISGDGSTTYYADSVKGRFTISRDNSKNTLYLQLNSLRAEDTAVYYCAREGSTAVTGDWFAYWGQGTLVTVSS VL: DIQLTQSPSSLSASVGDRVTITCSASSRVGYVHWYQQKPGKAPKLLIYDASSLESGVPSRFSGSGSGTDFTLTISSLQPEDFATYYCQQGYYTWTFGQGTKVEIKR What is its recorded pKd? 7.53
